Target: T1, CRBN, Q96SW2;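 also: pooled lentiviral library of zinc finger degron-EGFP fusions in mCherry-positive Jurkat cells, FACS-sorted after compound exposure, with degron abundance counted by next-generation sequencing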
T1 chain: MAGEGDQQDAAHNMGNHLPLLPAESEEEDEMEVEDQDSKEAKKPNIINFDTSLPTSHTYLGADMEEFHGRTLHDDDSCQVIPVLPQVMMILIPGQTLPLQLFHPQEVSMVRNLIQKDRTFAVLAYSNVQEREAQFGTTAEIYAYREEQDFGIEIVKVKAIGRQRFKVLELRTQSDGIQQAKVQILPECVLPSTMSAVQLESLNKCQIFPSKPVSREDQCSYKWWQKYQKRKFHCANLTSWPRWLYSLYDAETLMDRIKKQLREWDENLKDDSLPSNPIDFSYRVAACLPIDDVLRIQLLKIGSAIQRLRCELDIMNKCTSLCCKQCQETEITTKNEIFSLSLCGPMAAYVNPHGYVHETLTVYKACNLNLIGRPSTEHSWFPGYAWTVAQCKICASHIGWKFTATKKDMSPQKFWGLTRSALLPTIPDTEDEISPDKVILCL
Test: log2 fold change of degron read counts, EGFP-low vs EGFP+ sorted cells (limma voom), compound-induced degradation; higher = more compound-induced degradation of the degron-EGFP fusion; degrons are variants of IKZF1/3 zinc finger 2; compound dose not given here
Conditions: Jurkat; 18 h; compound: thalidomide
In all, about 8,300 sequences were measured (“log2 fold change of degron read counts, EGFP-low vs EGFP+ sorted cells (limma voom), compound-induced degradation”: median about -1.1, highest 2% from about 3.2 on). The list comes from a sample in which the highest values are over-represented; it also holds close analogues and randomly drawn sequences.

| Polymer Sequence | log2 fold change of degron read counts |
| --- | --- |
| FMCDVCGAQFTQKGNLLRHIKL [46F_47M_49D_50V_52G_53A_54Q_55F_67L_, Q9UKT9] | -0.932 |
| LWCPICGFMCTQKGNLLRHIKL [46L_47W_49P_50I_52G_53F_54M_55C_67L_, Q9UKT9] | 1.56 |
| FHCEICGAVFTQKGNLLRHIKL [46F_47H_49E_50I_52G_53A_54V_55F_67L_, Q9UKT9] | 0.109 |
| FSCNQCGRCFTQKGNLLRHIKL [46F_47S_49N_50Q_52G_53R_54C_55F_67L_, Q9UKT9] | -2.73 |
| FVCPVCGALFTQKGNLLRHIKL [46F_47V_49P_50V_52G_53A_54L_55F_67L_, Q9UKT9] | 0.951 |
| FHCPICGRLFTQKGNLLRHIKL [46F_47H_49P_50I_52G_53R_54L_55F_67L_, Q9UKT9] | -0.155 |
| FECNICGALFTQKGNLLRHIKL [46F_47E_49N_50I_52G_53A_54L_55F_67L_, Q9UKT9] | 0.62 |
| LKCPICGFMCTQKGNLLRHIKL [46L_47K_49P_50I_52G_53F_54M_55C_67L_, Q9UKT9] | -0.667 |
| FQCPVCGALFTQKGNLLRHIKL [46F_47Q_49P_50V_52G_53A_54L_55F_67L_, Q9UKT9] | 3.5 |
| FHCPICGATFTQKGNLLRHIKL [46F_47H_49P_50I_52G_53A_54T_55F_67L_, Q9UKT9] | 0.481 |
| FHCNVCGALFTQKGNLLRHIKL [46F_47H_49N_50V_52G_53A_54L_55F_67L_, Q9UKT9] | -1.55 |
| FACEICGAVFTQKGNLLRHIKL [46F_47A_49E_50I_52G_53A_54V_55F_67L_, Q9UKT9] | 0.606 |
| FHCNQCGARFTQKGNLLRHIKL [46F_47H_49N_50Q_52G_53A_54R_55F_67L_, Q9UKT9] | -2.18 |
| LYCEICGFICTQKGNLLRHIKL [46L_47Y_49E_50I_52G_53F_54I_55C_67L_, Q9UKT9] | 0.746 |
| LACEICGFICTQKGNLLRHIKL [46L_47A_49E_50I_52G_53F_54I_55C_67L_, Q9UKT9] | -0.408 |
| LICEICGFRCTQKGNLLRHIKL [46L_47I_49E_50I_52G_53F_54R_55C_67L_, Q9UKT9] | 3.01 |
| LYCEICGFMCTQKGNLLRHIKL [46L_47Y_49E_50I_52G_53F_54M_55C_67L_, Q9UKT9] | 1.05 |
| FCCEICGAVFTQKGNLLRHIKL [46F_47C_49E_50I_52G_53A_54V_55F_67L_, Q9UKT9] | 2.16 |
| LLCEICGFRCTQKGNLLRHIKL [46L_47L_49E_50I_52G_53F_54R_55C_67L_, Q9UKT9] | 2.48 |
| FFCPVCGALFTQKGNLLRHIKL [46F_47F_49P_50V_52G_53A_54L_55F_67L_, Q9UKT9] | 0.0806 |
| LACNQCGFLCTQKGNLLRHIKL [46L_47A_49N_50Q_52G_53F_54L_55C_67L_, Q9UKT9] | -1.99 |
| FGCEICGAVFTQKGNLLRHIKL [46F_47G_49E_50I_52G_53A_54V_55F_67L_, Q9UKT9] | 1.13 |
| LVCPICGFMCTQKGNLLRHIKL [46L_47V_49P_50I_52G_53F_54M_55C_67L_, Q9UKT9] | 2.63 |
| FFCEICGAVFTQKGNLLRHIKL [46F_47F_49E_50I_52G_53A_54V_55F_67L_, Q9UKT9] | 1.64 |
| FLCPVCGARFTQKGNLLRHIKL [46F_47L_49P_50V_52G_53A_54R_55F_67L_, Q9UKT9] | 1.68 |
| FTCPVCGARFTQKGNLLRHIKL [46F_47T_49P_50V_52G_53A_54R_55F_67L_, Q9UKT9] | 2.95 |
| LTCPICGFMCTQKGNLLRHIKL [46L_47T_49P_50I_52G_53F_54M_55C_67L_, Q9UKT9] | 2.3 |
| FFCSVCGHPFTQKGNLLRHIKL [46F_47F_49S_50V_52G_53H_54P_55F_67L_, Q9UKT9] | -1.25 |
| FWCPVCGARFTQKGNLLRHIKL [46F_47W_49P_50V_52G_53A_54R_55F_67L_, Q9UKT9] | 1.26 |

Origin of values: the supplement of paper PMC12645437
